Please go through the items and note down their reverse-splicing fitness.
B1: Azoarcus group I ribozyme (parent)
chain: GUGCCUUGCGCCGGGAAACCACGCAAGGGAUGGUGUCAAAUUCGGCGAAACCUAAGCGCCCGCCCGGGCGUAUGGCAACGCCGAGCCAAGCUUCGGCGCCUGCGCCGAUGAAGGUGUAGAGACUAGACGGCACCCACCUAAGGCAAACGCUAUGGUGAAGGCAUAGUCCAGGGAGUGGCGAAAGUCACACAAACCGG

# Variants of: B1
# Run Description: reverse-splicing fitness (ratio to wild type); higher = more active; in vitro selection; Mg2+ level not given

Query: Would you kindly share the measured reverse-splicing fitness for C82A A111C A120C A145G C150G U176A ?
Result: 0.00652

Query: Sample C82A A111G A120G C150G C169A U176G — what was its reverse-splicing fitness?
Result: 0.00672

Query: Can you look up the measured reverse-splicing fitness of C82U A111C A120G A145C C169A U176G for me?
Result: 0.00336

Query: # lookup: reverse-splicing fitness of C82U A111U A120U A145U C150U U176G
Result: 0.00324

Query: Can you share its reverse-splicing fitness? I mean this variant: C82A A145G C169U U176G
Result: 0.00459

Query: Would you mind telling me what reverse-splicing fitness value was observed for C82G A111C C150G C169A U176C ?
Result: 0.0108

Query: Would you mind telling me what reverse-splicing fitness value was observed for C82G A111C A120U A145C C150U C169U U176A ?
Result: 0.00337

Query: // reverse-splicing fitness lookup, key: A111U A120U C150G C169U U176G
Result: 0.0029

Query: Fill blank: measured reverse-splicing fitness of the variant A111G A120U C169A U176G is ____.
Result: 0.00161

Query: Reported reverse-splicing fitness, variant C82U A120U C150A C169A : ____
Result: 0.00297

Query: reverse-splicing fitness lookup needed for C82A A111C A120C A145U C150U C169U , thanks.
Result: 0.0124

Query: Need reverse-splicing fitness of A111G A120C A145U C150A , thanks.
Result: 0.111

Query: I would be grateful if you could share the reported reverse-splicing fitness for C82U A111C A120G A145U C150A C169G .
Result: 0.00681

Query: // reverse-splicing fitness lookup, key: C82U A120G A145G C150U C169U U176G
Result: 0.00441

Query: Returns the measured reverse-splicing fitness for the input variant. Input: C82G A111C A120C A145G C150U C169G U176G
Result: 0.00699

Query: GET /values?readout=reverse-splicing fitness&item= C82G A111G A120G A145U U176A
Result: 0.0167

Query: Data request, read-out reverse-splicing fitness, for C82A A120G A145G C150A C169A U176C
Result: 0.023

Query: If you can, please state the reported reverse-splicing fitness value of C82U A111G A120G A145C C169A U176A .
Result: 0.011

Query: Dear colleague, I am looking for the recorded reverse-splicing fitness of the following variant: C82U A111U A145G C150U C169U
Result: 0.0113

Query: Item C82A A111G A120C C169U U176A has what recorded reverse-splicing fitness?
Result: 0.016

Query: Would you kindly share the measured reverse-splicing fitness for C82U A111G A120C C150U C169U ?
Result: 0.0124

Query: For the variant C82U A111G C169A U176C , what reverse-splicing fitness is on record?
Result: 0.0146
